Quick record of GI50 values for U251 CNS.

Task: For the compound shown here, COc1ccc(C(=O)/C=C/c2cc(-c3ccc4c(c3)OCO4)n[nH]2)cc1OC , give the reported GI50.
Output: 1580 nM

---

Tested on: SK-OV-3 ovarian
METHOD_NOTES: NCI tumour cell line growth inhibition, 48 h
OBSERVED_PROPERTY: TGI

// below: answered compounds
1) Oc1ccc(Oc2cnc3cc(Cl)ccc3n2)cc1 : > 100 µM
2) CC#CC#C/C=C1\C=CC2(OC=CC2OC(C)=O)O1 (stereo unspecified) : > 100 µM
3) O=C1c2cc3c(cc2CC1Cc1ccc2c(c1)CCC2)CCC3 (stereo unspecified) : > 100 µM
4) CC1C(C#N)(C#N)C(C#N)=C(N)C1(C)[N+](=O)[O-] (stereo unspecified) : > 100 µM
5) COc1ccc(OC(C)C(=O)O)c2c1CCCC2=O (stereo unspecified) : > 100 µM

Turning now to a further compound:
Task: For the compound shown here, CN(C(=O)C12C3C4C1C1C2C3C41C(O)C(C)(C)C)C(C)(C)C (stereo unspecified) , give the reported TGI.
Output: > 100 µM

---

Tested on: UACC-257 melanoma
METHOD_NOTES: NCI tumour cell line growth inhibition, 48 h
Parameter TGI: see the listing below.
Field: numeric (µM). Do not append units.

// below: answered compounds
1. ClC1c2ccccc2C2(c3ccccc3)OOC1(c1ccccc1)O2 (configuration not stated) : 3.65
2. O=c1c2c(=NCCN3CCCC3)cc3c(=O)n(CCCN4CCOCC4)c(=O)c4ccc(c(O)n1CCCN1CCOCC1)c2c4-3 : 3.76
3. CN(C)c1ccc2cc3ccc(N(C)C)cc3nc2c1 : 24.8

Turning now to a further compound:
Task: For the compound shown here, O=C1/C(=C/c2ccc(Cl)cc2)CCC1CN1CCOCC1 (configuration not stated) , give the reported TGI.
Output: 21.8

---

Test system: MDA-N
METHOD_NOTES: NCI tumour cell line growth inhibition, 48 h
Parameter TGI: see the listing below.

// below: answered compounds
1. Cc1cc2oc3c(ccc(=O)n3C)c(=O)c2c(C)c1Cl : > 100 µM
2. Cc1ccc2c(=O)cc(Cc3csc4ccccc34)[nH]c2n1 : > 100 µM
3. CCn1c(=O)c2c3ccc(OC)cc3[nH]c2c2ccc(OC)cc21 : > 100 µM
4. N#CCc1nc2cc(C(F)(F)F)ccc2s1 : > 100 µM
5. O=C1CCC2(c3ccc(Cl)cc3)Nc3ncncc3N12 (stereo not drawn) : > 10 µM
6. CC1(C)CN=CC(C)(OCc2ccccc2)C(=O)NC(C)(C)CN=CC(C)(OCc2ccccc2)C(=O)N1 (stereo not drawn) : > 10 µM

Task: For the compound shown here, O=C(/C=C/c1ccccc1)Oc1cccc(Br)c1 , give the reported TGI.
Output: > 100 µM

Task: For the compound shown here, Cc1cn([C@H]2C[C@H](O)[C@@H](CO)O2)c(=O)nc1N , give the reported TGI.
Output: > 100 µM

Task: For the compound shown here, O=C1C(Br)=C(Br)C(=O)c2ccccc21 , give the reported TGI.
Output: 11.4 µM

---

Parameter TGI: see the listing below.
Tested on: SW-620 colon
METHOD_NOTES: NCI tumour cell line growth inhibition, 48 h

// below: answered molecules
1. CN(C)c1ccc(Nc2c3ccccc3nc3cc(NC(=O)CCN4CCCC4)ccc23)cc1 : 1.68 µM
2. CCCCCCCCCCCCCCCC(=O)OCC1OC(OC)C(NC(=O)N(CCCl)N=O)C(O)C1O (centres undefined) : 28.5 µM
3. O=c1c2c(=NCCN3CCCC3)cc3c(=O)n(CCCN4CCOCC4)c(=O)c4ccc(c(O)n1CCCN1CCOCC1)c2c4-3 : 1.07 µM
4. N#Cc1c(N2CCCC2)nsc1Nc1ccc(F)cc1 : > 100 µM
5. COc1cc2[nH]c(=O)c3cc(C)cc4c(Cl)nc(c1OC)c2c43 : > 100 µM
6. Cn1c(COC(=O)NC2CCCCC2)c(COC(=O)NC2CCCCC2)c2ccc3cc(C=O)ccc3c21 : > 100 µM

Turning now to a further molecule:
Task: For the molecule shown here, O=C1c2cc3c(cc2CC1Cc1ccc2c(c1)CCC2)CCC3 (centres undefined) , give the reported TGI.
Output: > 100 µM
